Data provenance is ChEMBL document CHEMBL3112484.

# IC50 per entry for Fatty-acid amide hydrolase 1 (Rattus norvegicus, UniProt P97612)
Please reply with the bare figure in nM and do not write the unit itself.

O=C(Nc1cccnn1)N1CCN(c2ccnc(-c3ccc(F)cc3F)c2)CC1; 12
O=C(Nc1cccnn1)N1CCN(c2cccc(-c3ccc(F)cc3F)n2)CC1; 13

Let's switch to this compound now.
Lookup: Hello, I am looking for reported IC50 with Fatty-acid amide hydrolase 1 (Rattus norvegicus, UniProt P97612) for O=C(Nc1cccnn1)N1CCN(c2ccnc(-c3ccc(F)cc3F)n2)CC1 . Could you help?
Found: 34

----------
Assay: Solubility of the compound in aqueous buffer at pH 6.8 by HPLC analysis
Format: physicochemical
metric name: log10(solubility) (log10 of the value in µg/mL)
Please interpret these as log10 of solubility where solubility is in µg/mL.

Worked cases, log10(solubility) given:
O=C(Nc1cccnn1)N1CCN(c2nccc(-c3cc(F)cc(F)c3)n2)CC1; -1.00
O=C(Nc1cccnn1)N1CCN(c2nccc(-c3cccc(F)c3F)n2)CC1; -0.80
O=C(Nc1cccnn1)N1CCN(c2ccnc(-c3ccc(F)cc3F)n2)CC1; 1.72
O=C(Nc1cccnn1)N1CCN(c2nccc(-c3ccc(F)cc3F)n2)CC1; -0.07

Let's switch to this compound now.
Lookup: Looking for the measured log10(solubility) of O=C(Nc1cccnn1)N1CCN(c2nccc(-c3ccc(F)c(F)c3)n2)CC1 , can you help?
Found: 0.49
